Consider the following compounds and their measured pKi readings.
target: PKC delta kinase (Homo sapiens); assay: PKC delta kinase inhibition, coupled-enzyme (NADH absorbance) assay, Ki; format: biochemical; details: 150 μM ATP, 46 nM PKC delta kinase, 30° C.; read-out: Ki PKC delta
Sequence (Q05655 whole entry): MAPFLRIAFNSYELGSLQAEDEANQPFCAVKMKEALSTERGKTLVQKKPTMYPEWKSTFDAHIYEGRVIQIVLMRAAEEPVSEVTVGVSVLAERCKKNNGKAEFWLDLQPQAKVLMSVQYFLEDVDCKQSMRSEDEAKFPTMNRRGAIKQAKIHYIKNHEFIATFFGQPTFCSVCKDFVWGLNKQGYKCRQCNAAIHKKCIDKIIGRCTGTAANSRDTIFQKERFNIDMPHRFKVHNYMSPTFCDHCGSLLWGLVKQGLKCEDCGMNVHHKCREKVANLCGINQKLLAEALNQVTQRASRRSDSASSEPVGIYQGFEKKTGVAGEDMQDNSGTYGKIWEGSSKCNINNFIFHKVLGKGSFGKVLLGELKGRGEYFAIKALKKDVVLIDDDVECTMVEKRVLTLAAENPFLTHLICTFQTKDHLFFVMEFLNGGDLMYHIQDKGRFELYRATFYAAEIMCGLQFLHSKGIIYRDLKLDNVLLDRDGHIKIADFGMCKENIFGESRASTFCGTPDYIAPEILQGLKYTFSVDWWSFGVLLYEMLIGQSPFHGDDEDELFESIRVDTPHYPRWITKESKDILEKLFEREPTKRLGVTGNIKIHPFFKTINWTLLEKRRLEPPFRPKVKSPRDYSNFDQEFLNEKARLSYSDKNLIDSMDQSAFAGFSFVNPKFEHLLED
pKi: −log10 of the molar value.

Solved cases below.
COMPOUND	TESTED TARGET	pKi
Fc1ccc(N2CCc3[nH]ncc3C2)nc1-c1n[nH]c2ncccc12	PKC delta kinase (Homo sapiens)	< 5.90
NC1CCN(c2cc(C(F)(F)F)cc(-c3n[nH]c4ncccc34)n2)CC1	PKC delta kinase (Homo sapiens)	> 5.55
CC(C)C[C@@H]1CC(F)(c2cccc(-c3n[nH]c4ncccc34)n2)CCN1 (stereo partly shown)	PKC delta kinase (Homo sapiens)	< 5.70
CC(C)(C(N)C1CCCN(c2ccc(F)c(-c3n[nH]c4ncccc34)n2)C1)C(F)(F)F (stereo not shown) [Compound 393]	PKC delta kinase (Homo sapiens)	> 7.30

Return reported pKi for target or system PKC delta kinase (Homo sapiens), item NC1CCCN(c2ccc(F)c(-c3n[nH]c4ncccc34)n2)C1 (stereo not shown) .
< 5.90

Return reported pKi for target or system PKC delta kinase (Homo sapiens), item NC[C@@H]1CCN(c2cc(C(F)(F)F)cc(-c3n[nH]c4ncccc34)n2)C1 .
< 5.90

Return reported pKi for target or system PKC delta kinase (Homo sapiens), item CC(C)CC1(N)CCCN(c2ccc(C(F)(F)F)c(-c3n[nH]c4ncccc34)n2)C1 (stereo not shown) .
< 5.90

Return reported pKi for target or system PKC delta kinase (Homo sapiens), item CC(O)(c1ccccc1)C1CN(c2ccc(F)c(-c3n[nH]c4ncccc34)n2)CCN1 (stereo not shown) [Compound 322] .
< 5.90

Return reported pKi for target or system PKC delta kinase (Homo sapiens), item CC(C)C[C@H]1CN(c2ccc(C(F)(F)F)c(-c3n[nH]c4ncc(F)cc34)n2)CCN1 .
> 5.55

Return reported pKi for target or system PKC delta kinase (Homo sapiens), item CC(C)C(C)C1CN(c2ccc(F)c(-c3n[nH]c4ncccc34)n2)CCN1 (stereo not shown) .
> 6.30

Return reported pKi for target or system PKC delta kinase (Homo sapiens), item FC(F)(F)c1cc(-c2n[nH]c3ncccc23)nc(N2CCNCC2)c1 .
< 5.70

Return reported pKi for target or system PKC delta kinase (Homo sapiens), item CC(C)C[C@H]1CN(c2cccc(-c3n[nH]c4ncccc34)n2)CC[C@H]1O .
> 5.55

Return reported pKi for target or system PKC delta kinase (Homo sapiens), item CCC[C@H]1CN(c2cccc(-c3n[nH]c4ncccc34)n2)CC(F)(F)CN1 .
< 5.90

Return reported pKi for target or system PKC delta kinase (Homo sapiens), item C[C@@H]1CNCCN1c1cccc(-c2n[nH]c3ncccc23)n1 .
> 5.55

Return reported pKi for target or system PKC delta kinase (Homo sapiens), item Cc1ccc(N2CCNCC2)nc1-c1n[nH]c2ncccc12 .
> 5.55

Return reported pKi for target or system PKC delta kinase (Homo sapiens), item O=C1CN(c2ccc(F)c(-c3n[nH]c4ncccc34)n2)CCN1 .
< 5.90
